# Protocol: Blood concentration measurement test (oral administration to mice)
# Type: in vivo
# Test conditions: Balb/cA, mouse, plasma, po, 50 mg/kg, 0.5% HPMC suspension, 50 mg/10 mL/kg, fed Balb/cA mice, compound (1) in plasma by LC-MS/MS, read-out: AUC0-24 hr
Measured property: AUC(0-t) (µM·h)

INSERT INTO measurements (molecule, reported_value) VALUES
  ('C[C@@H](NS(=O)(=O)CCCOCn1ccc(=O)[nH]c1=O)c1cccc(OC2CCCC2)c1', 122);
